Assay: Pharmacokinetic testing of salt forms, oral dosing
Format: in vivo
Conditions: Sprague-Dawley, rat, plasma, 18.2 mg/kg; fasted male rats; PO 14.3-18.7 mg/kg (row Dose); mean
METRIC: Cmax

> print(dat)
                                   compound  metric     result
1  CN1CCN(Cc2ccc(Nc3ncc(Cl)c(Nc4ccccc4S(=O)(=O)N(C)C)n3)cc2)CC1 [compound of structure (I)]    Cmax  116 ng/mL

* * *

Assay: Relative amounts of parent and active metabolites in plasma after 21 days of dosing
Type: in vivo, human
Details: 21 mg/M2 dose
// reported % in plasma at day 21 at 21 mg/M2 dose (FIG. 102B) per item
METRIC: % in plasma at day 21 at 21 mg/M2 dose (FIG. 102B) (%)

> print(dat)
                                   compound  unit.descriptor  numeric.value
1  CN1CCN(Cc2ccc(Nc3ncc(Cl)c(Nc4ccccc4S(=O)(=O)N(C)C)n3)cc2)CC1                %             17
2  CNS(=O)(=O)c1ccccc1Nc1nc(Nc2ccc(CN3CC[N+](C)([O-])CC3)cc2)ncc1Cl [Form M6]                %              7
3  CNS(=O)(=O)c1ccccc1Nc1nc(Nc2ccc(CN3CCN(C)CC3)cc2)ncc1Cl [Form M3]                %             44
4  CN(C)S(=O)(=O)c1ccccc1Nc1nc(Nc2ccc(CN3CCNCC3)cc2)ncc1Cl [Form M4]                %             14
5  CNS(=O)(=O)c1ccccc1Nc1nc(Nc2ccc(CN3CCNCC3)cc2)ncc1Cl [Form M2]                %             17
